half-life values, listed per item
# assay.method.text: Phase 1 pharmacokinetics in healthy human volunteers
# Type: in vivo
# cond: human, blood, intravenous, 1.8 g PFC/kg, Table VIII; 1.8 g PFC/kg; read-out: t1/2. 12 h (initial elimination half-life within the first 12 h post dose) (converted)
Report the figure in h without appending any unit label.

FC(F)(F)C(F)(F)C(F)(F)C(F)(F)C(F)(F)C(F)(F)C(F)(F)C(F)(F)C(F)(F)C(F)(F)Br [PFDB, perfluorodecyl bromide] ... 12.6

Let us examine a further case.
Problem: Query (compound): FC(F)(F)C(F)(F)C(F)(F)C(F)(F)C(F)(F)C(F)(F)C(F)(F)C(F)(F)Br [PFOB, perfluorooctyl bromide] ; field requested: half-life
Solution: 7.66

###

# assay.method.text: pharmacokinetics in blood after single intravenous administration of the emulsion of Ex. VI
# Assay type: in vivo, Sprague Dawley rats
# cond: male, Sprague-Dawley, rat, blood, iv, 3.6 g/kg, male rats, 3.6 g PFC/kg single iv, blood; last 3 or 4 data points; read-out: T1/2 (converted)
// half-life lookup, one value per entry

FC(F)(F)C(F)(F)C(F)(F)C(F)(F)C(F)(F)C(F)(F)C(F)(F)C(F)(F)C(F)(F)C(F)(F)Br [PFDB, perfluorodecyl bromide] ... ~523 days

Consider the record given below.
Problem: Returns the measured half-life for the input molecule. Input: FC(F)(F)C(F)(F)C(F)(F)C(F)(F)C(F)(F)C(F)(F)C(F)(F)C(F)(F)Br [PFOB, perfluorooctyl bromide]
Solution: 9.9 days

###

# assay.method.text: tissue distribution after single intravenous administration of the emulsion of Ex. VI, GC headspace
# Assay type: in vivo, Sprague Dawley rats
# cond: Sprague-Dawley, rat, intravenous; 24 hr, all tissues, both sexes and both doses; read-out: absolute concentration in tissues
reported.metric: concentration at 24 h

Problem: Look up concentration at 24 h for this molecule: FC(F)(F)C(F)(F)C(F)(F)C(F)(F)C(F)(F)C(F)(F)C(F)(F)C(F)(F)C(F)(F)C(F)(F)Br [PFDB, perfluorodecyl bromide]
Solution: > 1000 ng/g

###

# assay.method.text: pharmacokinetics in blood after single intravenous administration of the emulsion of Ex. VI
# Format: in vivo, Sprague Dawley rats
# cond: both sexes, Sprague-Dawley, rat, blood, iv, 3.6 g/kg, male and female rats, 3.6 g PFC/kg; read-out: average terminal t1/2 (converted)
reported.metric: half-life (h)
Report the value in h with no unit label.

Problem: Quick one: half-life of FC(F)(F)C(F)(F)C(F)(F)C(F)(F)C(F)(F)C(F)(F)C(F)(F)C(F)(F)Br [PFOB, perfluorooctyl bromide] ?
Solution: 181

###

# assay.method.text: Phase 1 pharmacokinetics in healthy human volunteers
# Type: in vivo
# cond: human, blood, intravenous, 1.2 g PFC/kg, Table VII; 1.2 g PFC/kg; read-out: AUC (0-336)
# Protocol: Two randomised, controlled, double-blind, parallel group, Phase 1 studies were conducted in healthy human patients with the fluorocarbon emulsion made according to Example VI. Blood and expired air samples were analysed for PFOB and PFDB after a single intravenous dose of 1.2 or 1.8 g PFC/kg of the fluorocarbon emulsion of Example VI in healthy human volunteers to determine pharmacokinetics. Blood samples were collected up to 336 hours post-dosing.
reported.metric: AUC(0-t)

FC(F)(F)C(F)(F)C(F)(F)C(F)(F)C(F)(F)C(F)(F)C(F)(F)C(F)(F)Br [PFOB, perfluorooctyl bromide] ... 10.2 µg·h/mL

Now for the compound whose AUC(0-t) we want.
Problem: Sample FC(F)(F)C(F)(F)C(F)(F)C(F)(F)C(F)(F)C(F)(F)C(F)(F)C(F)(F)C(F)(F)C(F)(F)Br [PFDB, perfluorodecyl bromide] — what was its AUC(0-t)?
Solution: 6640 µg·h/mL

###

# assay.method.text: tissue distribution after single intravenous administration of the emulsion of Ex. VI, GC headspace
# Format: in vivo, Sprague Dawley rats
# cond: male, Sprague-Dawley, rat, intravenous; 24 hours, males 1.8 g/kg of PFC, all tissues except the eyes and skeletal muscles; read-out: absolute concentration in tissues
reported.metric: concentration at 24 h

Problem: Data request, read-out concentration at 24 h, for FC(F)(F)C(F)(F)C(F)(F)C(F)(F)C(F)(F)C(F)(F)C(F)(F)C(F)(F)Br [PFOB, perfluorooctyl bromide]
Solution: > 100000 ng/g

###

# assay.method.text: tissue distribution after single intravenous administration of the emulsion of Ex. VI, GC headspace
# Format: in vivo, Sprague Dawley rats
# cond: female, Sprague-Dawley, rat, intravenous; 24 hours, females 3.6 g/kg of PFC, all tissues; read-out: concentration in tissues
reported.metric: concentration at 24 h

Problem: Which value of concentration at 24 h has been reported for FC(F)(F)C(F)(F)C(F)(F)C(F)(F)C(F)(F)C(F)(F)C(F)(F)C(F)(F)Br [PFOB, perfluorooctyl bromide] in the records?
Solution: > 100000 ng/g

###

# assay.method.text: tissue distribution after single intravenous administration of the emulsion of Ex. VI, GC headspace
# Format: in vivo, Sprague Dawley rats
# cond: male, Sprague-Dawley, rat, intravenous, 3.6 g PFC/kg; 24 hours, males 3.6 PFC/kg, all tissues; read-out: concentration in tissues
# Method: This study was designed to assess the pharmokinetics and tissue distribution of PFOB and PFDB following a single intravenous administration of the emulsion of Ex. VI at various time intervals at dose levels of 1.8 and 3.6 g PFC/k in male and female Sprague Daley rats, aged 7-9 weeks, weight between 190-267 grams. […] 26 groups (N=3 rats/sex/group). Prior to euthanasia, body weights were recorded. […] PFOB and PFDB were quantified in blood and tissues using a GC headspace method validated by Oread. […]
reported.metric: concentration at 24 h

Problem: Dear colleague, I am looking for the recorded concentration at 24 h of the following compound: FC(F)(F)C(F)(F)C(F)(F)C(F)(F)C(F)(F)C(F)(F)C(F)(F)C(F)(F)Br [PFOB, perfluorooctyl bromide]
Solution: > 100000 ng/g

###

# assay.method.text: Phase 1 pharmacokinetics in healthy human volunteers
# Format: in vivo
# cond: human, blood, intravenous, 1.8 g PFC/kg, Table VII; 1.8 g PFC/kg; read-out: t1/2. 12 h (initial elimination half-life within the first 12 h post dose) (converted)
Reported half-life by item:
Expressed in h, but write only the number.

FC(F)(F)C(F)(F)C(F)(F)C(F)(F)C(F)(F)C(F)(F)C(F)(F)C(F)(F)C(F)(F)C(F)(F)Br [PFDB, perfluorodecyl bromide] ... 18.7

Next:
Problem: Sample FC(F)(F)C(F)(F)C(F)(F)C(F)(F)C(F)(F)C(F)(F)C(F)(F)C(F)(F)Br [PFOB, perfluorooctyl bromide] — what was its half-life?
Solution: 10.5

###

# assay.method.text: pharmacokinetics in subjects undergoing noncardiac surgical procedures
# Format: in vivo, human
# cond: human, whole blood; noncardiac surgery, 0.9 g PFC/kg; read-out: Cmax (maximum whole blood concentration)
reported.metric: Cmax
Answer as a quantity: numeral, then unit.

FC(F)(F)C(F)(F)C(F)(F)C(F)(F)C(F)(F)C(F)(F)C(F)(F)C(F)(F)C(F)(F)C(F)(F)Br [PFDB, perfluorodecyl bromide] ... 284 µg/mL

Next item in the queue.
Problem: Returns the measured Cmax for the input molecule. Input: FC(F)(F)C(F)(F)C(F)(F)C(F)(F)C(F)(F)C(F)(F)C(F)(F)C(F)(F)Br [PFOB, perfluorooctyl bromide]
Solution: 7680 µg/mL

###

# assay.method.text: pharmacokinetics in subjects undergoing noncardiac surgical procedures
# Type: in vivo, human
# cond: human, whole blood; noncardiac surgery, 0.9 g PFC/kg; read-out: CL (whole blood clearance) (converted)
Listed here are compounds together with their documented clearance.

FC(F)(F)C(F)(F)C(F)(F)C(F)(F)C(F)(F)C(F)(F)C(F)(F)C(F)(F)Br [PFOB, perfluorooctyl bromide] ... 1.61 mL/min/kg

Please examine the following record next.
Problem: State the recorded clearance for this entry: FC(F)(F)C(F)(F)C(F)(F)C(F)(F)C(F)(F)C(F)(F)C(F)(F)C(F)(F)C(F)(F)C(F)(F)Br [PFDB, perfluorodecyl bromide]
Solution: 0.973 mL/min/kg

###

# assay.method.text: Phase 1 pharmacokinetics in healthy human volunteers
# Format: in vivo
# cond: human, blood, iv, 1.2 g PFC/kg, Table VIII; healthy volunteers, 1.2 g PFC/kg single iv
reported.metric: Cmax
Note: a bare number is incomplete; add the unit.

FC(F)(F)C(F)(F)C(F)(F)C(F)(F)C(F)(F)C(F)(F)C(F)(F)C(F)(F)C(F)(F)C(F)(F)Br [PFDB, perfluorodecyl bromide] ... 670 µg/mL

// next entry
Problem: Which Cmax value belongs to FC(F)(F)C(F)(F)C(F)(F)C(F)(F)C(F)(F)C(F)(F)C(F)(F)C(F)(F)Br [PFOB, perfluorooctyl bromide] ?
Solution: 12600 µg/mL
